log.P by entry:
Assay: logP determination by HPLC (EEC Directive 79/831 Annex V. A8)
Conditions: HPLC, gradient method, acetonitrile/0.1% aqueous phosphoric acid
metric: log.P

# compound, obs-value
records = [
    ("CN(C)c1c(-c2c(F)cc(F)cc2F)c(Cl)nc2nc(Br)nn12 [Example 59]", 3.14),
    ("CC(NNc1c(-c2ccccc2Cl)c(Cl)nc2nc(Cl)nn12)C1CC1 (stereo not drawn) [Example 17]", 3.55),
    ("Clc1nc2nc(Cl)c(-c3ccccc3Cl)c(N3CCOCC3)n2n1 [Example 27]", 3.03),
    ("CC(Nc1c(-c2ccc(F)cc2F)c(Cl)nc2nc(Cl)nn12)C(F)(F)F (stereo not drawn) [Example 96]", 3.52),
    ("CC(C)(C)Nc1c(-c2c(F)cc(F)cc2F)c(Cl)nc2nc(Br)nn12 [Example 58]", 3.9),
    ("CC(C)CNc1c(-c2c(F)cccc2Cl)c(Cl)nc2nc(Cl)nn12 [Example 139]", 3.74),
    ("CC1CCN(c2c(-c3ccccc3Cl)c(Cl)nc3nc(Cl)nn23)CC1 [Example 82]", 4.62),
    ("Fc1cc(F)c(-c2c(Cl)nc3nc(Cl)nn3c2NC2CC2)c(F)c1 [Example 14]", 3.1),
    ("Fc1cc(F)c(-c2c(Cl)nc3nc(Br)nn3c2N2CCCC2)c(F)c1 [Example 52]", 3.5),
]
